Target: Caenorhabditis elegans
Assay: Compound was evaluated for the binding affinity for Caenorhabditis elegans avermectin using Caenorhabditis elegans membrane homogenates using [3H]IVM as radioligand
Type: functional
reported property: pIC50
In textbook form, pIC50 equals minus log to base ten of the concentration in mol/L.

Please report the recorded pIC50 for IVERMECTIN .
10.00

Source listed as ChEMBL document CHEMBL1126310.
